assay: Thermodynamic solubility testing in pH 6.8 phosphate buffer; format: physicochemical; conditions: phosphate buffer, pH 6.8, aqueous buffer, thermodynamic from solid, material obtained from 1,4-dioxane; read-out: Solubility at pH 6.8
endpointLabel: solubility at 24 h (µg/mL)
# number only, unit µg/mL dropped from output

Query block: Would you kindly share the measured solubility at 24 h for CCC1CCC(C2CC=C(c3cnc(-c4ccc(CC(NC(=O)c5ccc(C(C)(C)C)s5)C(=O)N5CC(C(=O)O)C5)cc4)nc3)CC2)CC1 (stereo not shown) ?
Result block: 303

----------
assay: Thermodynamic solubility testing in pH 6.8 phosphate buffer; type: physicochemical; settings: phosphate buffer, pH 6.8, aqueous buffer, thermodynamic from solid, material obtained from DCM; read-out: Solubility at pH 6.8
endpointLabel: solubility at 24 h (µg/mL)
# number only, unit µg/mL dropped from output

Query block: Would you kindly share the measured solubility at 24 h for CCC1CCC(C2CC=C(c3cnc(-c4ccc(CC(NC(=O)c5ccc(C(C)(C)C)s5)C(=O)N5CC(C(=O)O)C5)cc4)nc3)CC2)CC1 (stereo not shown) [meglumine-RP-101] ?
Result block: 160
